# Tested on: hepatocellular carcinoma (HepG2)
# run.description: MTT cytotoxicity assay, HepG2
# Assay type: cell-based, human
# details: 72 h
The label is yes (1) for IC50 below 10 µM and no (0) for IC50 equal to or exceeding 10 µM.

Query: Dear colleague, could you confirm whether IC50 of CCCCCCn1cc[n+](CCCCCC)[c]1[Au-]12[n]3c(nc4ccccc43)-c3cccc([n+]31)-c1nc3ccccc3[n]12.O=S(=O)([O-])C(F)(F)F falls below 10 µM? Thanks.
Response: yes (1)

Query: Is the reported IC50 for CCCCCCCCn1cc[n+](C)[c]1[Au-]12[n]3ccnc3-c3cccc([n+]31)-c1ncc[n]12.O=S(=O)([O-])C(F)(F)F strictly below 10 µM?
Response: no (0)

Query: In the record for CCCCCCCCCCCCCCCCn1cc[n+](C)[c]1[Au-]12[n]3ccnc3-c3cccc([n+]31)-c1ncc[n]12.O=S(=O)([O-])C(F)(F)F , is IC50 less than 10 µM?
Response: yes (1)

Query: Regarding Cn1cc[n+](C)[c]1[Au-]12[n]3ccnc3-c3cccc([n+]31)-c1ncc[n]12.O=S(=O)([O-])C(F)(F)F , kindly confirm whether its IC50 is beneath 10 µM.
Response: no (0)

Query: Is the reported IC50 for CCCCn1cc[n+](CCCC)[c]1[Au-]12[n]3c(nc4ccccc43)-c3cccc([n+]31)-c1nc3ccccc3[n]12.O=S(=O)([O-])C(F)(F)F strictly below 10 µM?
Response: no (0)

Query: is_below(IC50, 10 µM) for CCCCCCCCCCn1cc[n+](C)[c]1[Au-]12[n]3ccnc3-c3cccc([n+]31)-c1ncc[n]12.O=S(=O)([O-])C(F)(F)F ?
Response: no (0)

Query: Item CCCCCCn1cc[n+](CCCCCC)[c]1[Au-]12[n]3ccnc3-c3cccc([n+]31)-c1ncc[n]12.O=S(=O)([O-])C(F)(F)F : IC50 beneath 10 µM, strictly?
Response: yes (1)

Query: Determine if CCCCn1cc[n+](CCCC)[c]1[Au-]12[n]3ccnc3-c3cccc([n+]31)-c1ncc[n]12.O=S(=O)([O-])C(F)(F)F shows IC50 strictly lower than 10 µM.
Response: no (0)

Query: Would you kindly verify if IC50 of Cn1cc[n+](C)[c]1[Au-]12[n]3c(nc4ccccc43)-c3cccc([n+]31)-c1nc3ccccc3[n]12.O=S(=O)([O-])C(F)(F)F is strictly less than 10 µM?
Response: no (0)
